test: Pharmacokinetics in Sprague-Dawley rats, 2-in-1 dosing; type: in vivo; settings: Sprague-Dawley, rat, plasma, iv, 1 mg/kg, intravenous 1 mg/kg, single dose, plasma (Table 3)
Metric Name: AUC(0-inf) (ng·h/mL)

>>> df
                                   molecule  units_label  endpoint_value
0  Cc1nc(Nc2ncc(C(=O)Nc3c(C)cccc3Cl)s2)cc(N2CC[C@@H](O)C2)n1 [Compound XI]      ng·h/mL            2480
1  [2H]c1cc(C)c(NC(=O)c2cnc(Nc3cc(N4CCN(CCO)CC4)nc(C)n3)s2)c(Cl)c1 [Compound III]      ng·h/mL             917
2  Cc1nc(Nc2ncc(C(=O)Nc3c(C)cccc3Cl)s2)cc(N2CC[C@H](O)C2)n1 [Compound X]      ng·h/mL            2520
3  Cc1nc(Nc2ncc(C(=O)Nc3c(C)cccc3Cl)s2)cc(N2CCN(CCO)CC2)n1 [Dasatinib, reference compound]      ng·h/mL            1010
